Entries and their pIC50
# System: HepG2 cells (human hepatocellular carcinoma)
# RUN DESCRIPTION: Cytotoxicity, MTT assay, HepG2
# Format: cell-based
# CONDITIONS USED: HepG2, MTT, 24 h, mean ± SEM, n = 3, read-out: Hep G2 IC50
Hey, just a heads up that pIC50 is the negative log base 10 of the concentration in molar.

Enquiry: For HepG2 cells (human hepatocellular carcinoma), provide pIC50 of Oc1ccccc1CNCCCCCCCCNc1c2c(nc3c1CCC3)CCCC2 [10c] please.
Return: 5.38

====

# System: porcine liver CES
# RUN DESCRIPTION: In vitro CES inhibition (4-NPA substrate)
# Format: biochemical
# CONDITIONS USED: % inhibition at 20 μM; n.a. = not active
The label depends only on CES inhibition, %: y if it is at least 10%, n if it is smaller.

Enquiry: # bool: CES inhibition, % of O=C(NCCCCCCNc1c2c(nc3c1CCC3)CCCC2)c1ccccc1O >= 10%
Return: y

Enquiry: Same question for CCCCCCN=Cc1ccccc1O [compound 12, 2‐[(hexylimino)methyl]phenol] please.
Return: n

Enquiry: What do we get for Oc1ccccc1CNCCCCNc1c2c(nc3c1CCC3)CCCC2 [10a] ?
Return: n

Enquiry: Another: CCCCCCNCc1ccccc1O [compound 13, 2‐[(hexylamino)methyl]phenol]
Return: y

Enquiry: Continue with Oc1ccccc1C=NCCCCCCCCNc1c2c(nc3c1CCC3)CCCC2
Return: y

Enquiry: Next entry: O=C(NCCCCCCCCNc1c2c(nc3c1CCC3)CCCC2)c1ccccc1O
Return: y

Enquiry: Same question, O=C(O)c1ccccc1O [Salicylic acid, reference compound] this time
Return: n

====

# MEASUREMENT TARGET: equine serum BChE (Equus caballus, UniProt P81908)
# Construct: purchased Sigma-Aldrich; Milamed, Perm, Russia (supplement); host or cells: horse serum
# Sequence (P81908 whole entry): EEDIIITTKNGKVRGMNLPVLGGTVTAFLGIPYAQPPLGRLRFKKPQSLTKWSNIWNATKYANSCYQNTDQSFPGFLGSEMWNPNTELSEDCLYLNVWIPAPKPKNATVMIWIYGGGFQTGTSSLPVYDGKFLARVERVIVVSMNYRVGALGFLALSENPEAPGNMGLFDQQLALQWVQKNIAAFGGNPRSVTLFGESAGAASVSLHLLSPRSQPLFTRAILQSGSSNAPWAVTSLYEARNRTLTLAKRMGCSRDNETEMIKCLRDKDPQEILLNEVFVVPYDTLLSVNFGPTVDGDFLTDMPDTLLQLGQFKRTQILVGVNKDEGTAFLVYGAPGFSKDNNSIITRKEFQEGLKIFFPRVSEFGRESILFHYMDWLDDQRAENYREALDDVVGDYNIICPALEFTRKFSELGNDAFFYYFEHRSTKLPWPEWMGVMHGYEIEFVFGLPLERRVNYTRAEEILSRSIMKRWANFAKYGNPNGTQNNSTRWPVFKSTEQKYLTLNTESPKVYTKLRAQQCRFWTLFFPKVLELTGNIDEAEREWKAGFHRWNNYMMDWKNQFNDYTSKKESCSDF
# RUN DESCRIPTION: biochemical
MEASUREMENT KIND: IC50
Lab note: write values as number then unit, every time.

Enquiry: May I ask what IC50 has been recorded for O=C(NCCCCCCCCNc1c2c(nc3c1CCC3)CCCC2)c1ccccc1O ?
Return: 11 nM

====

# MEASUREMENT TARGET: eqBChE (Equus caballus)
# Construct: Milamed, Perm, Russia (supplement)
# RUN DESCRIPTION: Kinetic study of BChE inhibition, steady-state inhibition constants
# CONDITIONS USED: means ± SEM; read-out: K i (competitive inhibition constant), eqBChE
MEASUREMENT KIND: pKi
Give only the number. pKi is defined as minus log10 of concentration in molar units.

>  <COMPOUND>
O=C(NCCCCCCNc1c2c(nc3c1CCC3)CCCC2)c1ccccc1O [7b]

>  <pKi>
7.85

$$$$
>  <COMPOUND>
Oc1ccccc1C=NCCCCCCNc1c2c(nc3c1CCC3)CCCC2 [9b]

>  <pKi>
7.30

$$$$

Let us move to another entry and its pKi.
Enquiry: Tell me the measured pKi of Oc1ccccc1CNCCCCCCNc1c2c(nc3c1CCC3)CCCC2 [10b] , please.
Return: 7.68

====

# MEASUREMENT TARGET: equine serum BChE (Equus caballus)
# Construct: purchased Sigma-Aldrich; Milamed, Perm, Russia (supplement); host or cells: horse serum
# RUN DESCRIPTION: biochemical
MEASUREMENT KIND: Selectivity index IC50AChE/IC50BChE
# output: bare number, no unit

>  <COMPOUND>
O=C(NCCCCCCNc1c2c(nc3c1CCC3)CCCC2)c1ccccc1O

>  <MEASUREMENT TARGET>
equine serum BChE (Equus caballus)

>  <MEASUREMENT KIND>
Selectivity index IC50AChE/IC50BChE

>  <VALUE OBSERVED>
193

$$$$
>  <COMPOUND>
O=C(NCCCCCCCCNc1c2c(nc3c1CCC3)CCCC2)c1ccccc1O

>  <MEASUREMENT TARGET>
equine serum BChE (Equus caballus)

>  <MEASUREMENT KIND>
Selectivity index IC50AChE/IC50BChE

>  <VALUE OBSERVED>
138

$$$$
>  <COMPOUND>
Oc1ccccc1CNCCCCCCCCNc1c2c(nc3c1CCC3)CCCC2 [10c]

>  <MEASUREMENT TARGET>
equine serum BChE (Equus caballus)

>  <MEASUREMENT KIND>
Selectivity index IC50AChE/IC50BChE

>  <VALUE OBSERVED>
12.0

$$$$
>  <COMPOUND>
Oc1ccccc1C=NCCCCCCCCNc1c2c(nc3c1CCC3)CCCC2

>  <MEASUREMENT TARGET>
equine serum BChE (Equus caballus)

>  <MEASUREMENT KIND>
Selectivity index IC50AChE/IC50BChE

>  <VALUE OBSERVED>
56.8

$$$$
>  <COMPOUND>
CCCCCCNc1c2c(nc3c1CCC3)CCCC2

>  <MEASUREMENT TARGET>
equine serum BChE (Equus caballus)

>  <MEASUREMENT KIND>
Selectivity index IC50AChE/IC50BChE

>  <VALUE OBSERVED>
16.4

$$$$
>  <COMPOUND>
Oc1ccccc1C=NCCCCNc1c2c(nc3c1CCC3)CCCC2

>  <MEASUREMENT TARGET>
equine serum BChE (Equus caballus)

>  <MEASUREMENT KIND>
Selectivity index IC50AChE/IC50BChE

>  <VALUE OBSERVED>
5.2

$$$$

Enquiry: Entry under review: Oc1ccccc1CNCCCCNc1c2c(nc3c1CCC3)CCCC2 [10a] . Reported Selectivity index IC50AChE/IC50BChE?
Return: 12.1

Enquiry: Thanks! And O=C(NCCCCNc1c2c(nc3c1CCC3)CCCC2)c1ccccc1O ?
Return: 6.0

====

The entries below are paired with their reported Propidium displacement, %.
# MEASUREMENT TARGET: PAS of Electrophorus electricus AChE (EeAChE) (Electrophorus electricus)
# Construct: purchased Sigma-Aldrich type VI-S; host or cells: electric eel tissue
# Sequence (O42275 24-633): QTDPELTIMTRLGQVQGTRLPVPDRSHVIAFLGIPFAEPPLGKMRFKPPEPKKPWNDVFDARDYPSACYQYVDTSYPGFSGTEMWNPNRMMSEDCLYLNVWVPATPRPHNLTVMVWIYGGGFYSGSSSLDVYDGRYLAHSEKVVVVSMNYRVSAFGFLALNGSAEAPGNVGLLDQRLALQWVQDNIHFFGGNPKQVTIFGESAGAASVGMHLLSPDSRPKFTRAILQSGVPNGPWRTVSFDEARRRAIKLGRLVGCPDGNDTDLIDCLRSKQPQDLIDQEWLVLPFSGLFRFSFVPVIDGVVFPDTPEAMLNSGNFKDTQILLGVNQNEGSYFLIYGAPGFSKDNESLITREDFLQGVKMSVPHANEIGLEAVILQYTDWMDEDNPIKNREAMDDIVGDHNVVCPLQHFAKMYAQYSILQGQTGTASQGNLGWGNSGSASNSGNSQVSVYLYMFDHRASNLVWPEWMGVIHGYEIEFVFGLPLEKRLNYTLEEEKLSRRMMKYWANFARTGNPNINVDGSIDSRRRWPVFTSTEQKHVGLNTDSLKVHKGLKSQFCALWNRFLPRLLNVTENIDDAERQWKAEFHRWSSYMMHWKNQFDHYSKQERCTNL
# Format: binding
# CONDITIONS USED: 20 µM compound concentration
All answers are understood in %, so give the number only.

>  <COMPOUND>
Oc1ccccc1CNCCCCCCCCNc1c2c(nc3c1CCC3)CCCC2 [10c]

>  <Propidium displacement, % [%]>
15.8

$$$$
>  <COMPOUND>
Oc1ccccc1C=NCCCCNc1c2c(nc3c1CCC3)CCCC2 [9a]

>  <Propidium displacement, % [%]>
12.5

$$$$
>  <COMPOUND>
Oc1ccccc1CNCCCCNc1c2c(nc3c1CCC3)CCCC2 [10a]

>  <Propidium displacement, % [%]>
13.6

$$$$

Shift focus to the following entry.
Enquiry: # get_value(readout='Propidium displacement, %', item= O=C(NCCCCNc1c2c(nc3c1CCC3)CCCC2)c1ccccc1O [7a] )
Return: 10.8

====

# MEASUREMENT TARGET: β‐amyloid (1–42) (Aβ42) (Homo sapiens, UniProt P05067)
# Sequence (P05067 672-713 limits assumed): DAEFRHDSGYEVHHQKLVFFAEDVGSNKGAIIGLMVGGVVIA
# RUN DESCRIPTION: Inhibition of Aβ42 self-aggregation (thioflavin T fluorescence)
# Assay type: biochemical
# CONDITIONS USED: Aβ42 50 µM, compound 100 µM; read-out: Inhibition of Aβ42 self‐aggregation, %
# Description: Inhibition of Aβ42 self‐aggregation by test compounds was studied using the ThT fluorescence method^[ [67], [68] ^] with minor modifications as described in detail in Makhaeva et al.^[ [16] ^] […] ^c The inhibitory effect of the test compounds toward Aβ42 self-aggregation was determined using the thioflavin T (ThT) fluorescence method ^[5-7] with minor modifications as described in detail in ^[8]. […] Analyses were performed with a FLUOStar Optima microplate reader (LabTech, Ortenberg, Germany). […]
Catalogue of inhibition at 100 µM readings, one per entry.
Enter your answer as a number in %; do not include the unit.

>  <COMPOUND>
O=C(NCCCCCCCCNc1c2c(nc3c1CCC3)CCCC2)c1ccccc1O

>  <UNIT ABBREV>
%

>  <VALUE OBSERVED>
74.1

$$$$

Enquiry: Fill blank: measured inhibition at 100 µM of the compound Oc1ccccc1CNCCCCCCCCNc1c2c(nc3c1CCC3)CCCC2 [10c] is ____.
Return: 96.7

Enquiry: Likewise for Oc1ccccc1CNCCCCNc1c2c(nc3c1CCC3)CCCC2 [10a] ?
Return: 30.5

Enquiry: Try the compound Oc1ccccc1C=NCCCCNc1c2c(nc3c1CCC3)CCCC2
Return: 20.1

Enquiry: Follow-up item: O=C(NCCCCNc1c2c(nc3c1CCC3)CCCC2)c1ccccc1O
Return: 41.3

Enquiry: Next: O=c1c(O)c(-c2cc(O)c(O)c(O)c2)oc2cc(O)cc(O)c12 [Myricetin, reference compound]
Return: 79.4

Enquiry: O=C(NCCCCCCNc1c2c(nc3c1CCC3)CCCC2)c1ccccc1O ?
Return: 53.4

Enquiry: Likewise for Oc1ccccc1CNCCCCCCNc1c2c(nc3c1CCC3)CCCC2 [10b] ?
Return: 79.2

Enquiry: Try Oc1ccccc1C=NCCCCCCCCNc1c2c(nc3c1CCC3)CCCC2 next.
Return: 71.7

# credit: paper PMC11650361
